target: T1, His-tagged soluble recombinant human IGF-IR (srhIGF-1R-his) (human, UniProt P08069 31-935); assay: ALPHAScreen competition against b-hIGF-1 on srhIGF-1R-his
T1 construct: extracellular domain; Bought construct; not shown: His tag

# binder, IC50 (nM)
data = [
    ("RP30-IGF-12-D112 (peptide) ADYKDSFYSCLESLVNGGAERSDGQWEGCRGGSGGSGGSGGSCWARPCGDAANFYDWFVQQASKKAAAGAPVPYPDPLEPRPG", 1100),
    ("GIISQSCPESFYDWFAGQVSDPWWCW [G33]", 600),
    ("D112-12-RP30-IGF (peptide) ADYKDCWARPCGDAANFYDWFVQQASKKGGSGGSGGSGGSSFYSCLESLVNGGAERSDGQWEGCRAAAGAPVPYPDPLEPRPG", 170),
]
